Values from patent US7276511B2

For each record, write down the corresponding pIC50.
- tested_on: Cloned Neurokinin Receptor Subtype 2 Human (Homo sapiens, UniProt P21452)
- Construct: purchased Biosignal Packard; host or cells: CHO cells
- Sequence (P21452 whole entry): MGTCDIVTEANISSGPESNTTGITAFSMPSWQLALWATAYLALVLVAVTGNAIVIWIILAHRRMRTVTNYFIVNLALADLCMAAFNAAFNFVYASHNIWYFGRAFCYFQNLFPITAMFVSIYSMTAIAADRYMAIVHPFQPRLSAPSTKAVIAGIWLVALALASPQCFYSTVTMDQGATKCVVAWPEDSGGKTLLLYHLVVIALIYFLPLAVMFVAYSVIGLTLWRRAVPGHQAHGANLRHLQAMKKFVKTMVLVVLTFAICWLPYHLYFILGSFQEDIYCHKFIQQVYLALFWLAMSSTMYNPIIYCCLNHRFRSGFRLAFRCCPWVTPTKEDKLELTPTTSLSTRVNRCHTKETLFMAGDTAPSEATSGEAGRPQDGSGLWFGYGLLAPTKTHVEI
- assay_name: NK-2 receptor-binding experiment ([3H]-SR48968, CHO cell membranes)
- particulars: Table 3; inhibition of [3H]-SR48968 (0.85 nM) binding, pseudo-Hill analysis
Structures can show the parent of a compound that is named as a salt.
One number for each entry, as −log10 of the molar value.

Below: 2 compounds and their reported pIC50.
compound	tested_on	quantitative_readout
CCN(C(=O)C(=O)N(C)[C@](CCN1CCC2(CC1)NC(=O)Cc1ccccc12)(CN(C)C(=O)C(C)(C)C)c1ccc(Cl)c(Cl)c1)c1ccccc1 [Compound No. 38, hydrochloride]	Cloned Neurokinin Receptor Subtype 2 Human (Homo sapiens, UniProt P21452)	8.72
CN(CC(CCN1CCC2(CC1)NC(=O)Cc1ccccc12)(c1ccc(Cl)c(Cl)c1)N(C)C(=O)NC(c1ccccc1)c1ccccc1)C(=O)C(F)(F)F (stereo not drawn) [Compound No. 3, hydrochloride]	Cloned Neurokinin Receptor Subtype 2 Human (Homo sapiens, UniProt P21452)	8.77

Let's switch to this compound now.
INPUT: Respond only with pIC50 recorded for CCN(C(=O)C(=O)N(C)[C@](CCN1CCC2(CC1)NC(=O)Cc1ccccc12)(CN(C)C(=O)C(C)C)c1ccc(Cl)c(Cl)c1)c1ccccc1 [Compound No. 40, hydrochloride]
OUTPUT: 9.14
